Item-by-item account of normalized growth
procedure text: chemical genetic growth profiling, strain panel (AID 1159580);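 also: tested at 20 µM; growth read once vehicle control cultures reached saturation at 30 °C; 1 = growth at the plate median or of vehicle wells; lower values mean less growth of the strain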
cond: S. cerevisiae deletion strains, growth OD, locus YAL040C, strain CLN3, stronger effect = lower value
In all, about 5,500 compounds went through this assay and about 2,000 (36%) were called active. Inconclusive results (about 18%) are left out. This is one part of the list.
readout: normalized growth

> print(dat)
                                   compound  meas.value
1       N#CC(C#N)=C(N)/C(C#N)=C/c1ccc(O)cc1       0.962
2  CNCC(O)c1ccc(O)cc1 (configuration not stated)        1.02
3  COc1cc(OC)c(/C=C2/C(=O)Nc3ccccc32)c(OC)c1       0.983
4                        NNC(=O)c1ccc(O)cc1       0.963
5  CN1CCC2(CCN3CCc4c(oc5ccccc45)C3C2)N(C)C1=O (configuration not stated)           1
6                  C1COC(NC(C2CC2)C2CC2)=N1        1.01
7   N#C/C(=C\c1ccc(O)c(O)c1)C(=O)NCc1ccccc1       0.984

###

procedure text: chemical genetic growth profiling, strain panel (AID 1159580);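 also: tested at 20 µM; growth read once vehicle control cultures reached saturation at 30 °C; 1 = growth at the plate median or of vehicle wells; lower values mean less growth of the strain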
cond: S. cerevisiae deletion strains, growth OD, locus YER167W, strain BCK2
In all, about 5,500 compounds went through this assay and about 2,000 (36%) were called active. Another 18% or so got no clear call; they are omitted. Cut-off read from the data, not from the text of the source: active = normalized growth mostly below about 0.91 (no sharp cut-off); inconclusive = no clear call, values can overlap the other calls; inactive = mostly above about 0.92. The list shows a part of the results.
Labels: active, inactive

compound	category label
CCN(Cc1ccncc1)C(=O)C(CO)c1ccccc1 (configuration not stated)	inactive
CC1(C)C(=O)C=C[C@@]2(C)C1C[C@@H](O)[C@]1(C)C2CC[C@@]2(C)[C@H](c3ccoc3)OC(=O)[C@H]3O[C@]321 (some centres not stated)	inactive
CC1CC[C@]2(NC1)O[C@H]1CC3C4CC[C@H]5C[C@@H](O)CC[C@]5(C)C4CC[C@]3(C)[C@H]1[C@@H]2C (some centres not stated)	active
CC1CC[C@@]2(OC1)O[C@H]1CC3C4CC[C@@H]5CC(=O)CC[C@]5(C)C4CC[C@]3(C)[C@H]1[C@@H]2C (some centres not stated)	inactive
O=C(O[C@@H]1Cc2c(O)cc(O)cc2O[C@@H]1c1cc(O)c(=O)c2c(O)c(O)cc([C@H]3Oc4cc(O)cc(O)c4C[C@H]3OC(=O)c3cc(O)c(O)c(O)c3)c2c1)c1cc(O)c(O)c(O)c1	active
COc1ccc2c(c1C(C)C)CCC1C(C)(C)C(=O)CCC21C (configuration not stated)	inactive
CC(=O)[C@@]1(O)CCC2C3C[C@H](C)C4=CC(=O)C=CC4(C)[C@@]3(F)[C@@H](O)C[C@@]21C (some centres not stated)	inactive
O=c1c(O)c(-c2cc(O)c(O)c(O)c2)oc2cc(O)cc(O)c12	inactive
COc1ccc(-c2cc(=O)c3c(O)cc(O[C@H]4O[C@H](CO[C@@H]5O[C@@H](C)[C@H](O)[C@@H](O)[C@H]5O)[C@@H](O)[C@H](O)[C@H]4O)cc3o2)cc1	inactive
COc1cc(O)c2c(=O)c(O)c(-c3ccc(O)c(O)c3)oc2c1	inactive
CNC(=O)Oc1cccc2c1OC(C)(C)O2	inactive
CC(=O)O[C@@H]1CC(=O)[C@@]2(C)C(CC(=O)[C@]3(C)C2CC[C@@]2(C)[C@H](c4ccoc4)OC(=O)C4OC423)C1(C)C (some centres not stated)	inactive
COc1cc(OC)c2c(=O)c(OC)c(-c3ccc(OC)c(OC)c3)oc2c1	inactive
CO[C@@]1(NC(=O)C(C(=O)O)c2ccc(O)cc2)C(=O)N2C(C(=O)O)=C(CSc3nnnn3C)CO[C@@H]21 (some centres not stated)	inactive
O=C(O[C@@H]1Cc2c(O)cc(O)cc2O[C@@H]1c1cc(O)c(=O)c2c(O)c(O)cc([C@H]3Oc4cc(O)cc(O)c4C[C@H]3O)c2c1)c1cc(O)c(O)c(O)c1	active
CCCC(C)(COC(N)=O)COC(=O)NC(C)C (configuration not stated)	inactive
O=C1C=C2C(=CCOC2O)O1 (configuration not stated)	active
CC(C)c1c(O)ccc2c1CCC1C(C)(C)CCC[C@]21C (some centres not stated)	active
CC1(C)O[C@H]2CC(=O)OC[C@]23[C@H]2CC[C@@]4(C)[C@H](c5ccoc5)OC(=O)[C@H]5O[C@]54[C@]2(C)C(=O)C[C@@H]13	inactive
CCCCCCCCCCCC1=C(O)C(=O)C=C(O)C1=O	inactive
COc1ccc(-c2oc3c(CC=C(C)C)c(O[C@@H]4O[C@H](CO)[C@@H](O)[C@H](O)[C@H]4O)cc(O)c3c(=O)c2O[C@@H]2O[C@@H](C)[C@H](O)[C@@H](O)[C@H]2O)cc1	inactive
C[C@@H]1CC[C@@]2(OC1)OC1CC3C4CC=C5C[C@@H](O)CC[C@]5(C)C4CC[C@]3(C)C1[C@@H]2C (some centres not stated)	inactive
O=C(OC1Cc2c(O)cc(O)cc2OC1c1cc(=O)c(O)c2c(O)c(O)cc(C3Oc4cc(O)cc(O)c4CC3O)c2c1)c1cc(O)c(O)c(O)c1 (configuration not stated)	active
C[C@@H]1O[C@@H](OC[C@H]2OC(Oc3c(-c4ccc(OCCO)c(OCCO)c4)oc4cc(OCCO)cc(O)c4c3=O)[C@H](O)[C@@H](O)[C@@H]2O)[C@H](O)[C@H](O)[C@H]1O (some centres not stated)	inactive
COc1cc(OC)c2c(=O)c(O)c(-c3ccc(OC)c(OC)c3)oc2c1	active
CC1CC[C@@]2(OC1)O[C@H]1CC3C4CC[C@@H]5C[C@@H](O)CC[C@]5(C)C4CC[C@]3(C)[C@H]1[C@@H]2C (some centres not stated)	inactive
CC(=O)O[C@@H]1CC2C(C)(C)C(=O)C=C[C@]2(C)C2CC[C@@]3(C)[C@H](c4ccoc4)OC(=O)[C@H]4O[C@]43[C@@]21C (some centres not stated)	inactive
C[C@@H]([C@H](O)c1ccccc1)N(C)C	inactive
CCc1cc(C(N)=S)ccn1	inactive
C[C@@H]1CC[C@@]2(NC1)O[C@H]1C[C@H]3C4CC=C5C[C@@H](O)CC[C@]5(C)C4CC[C@]3(C)C1[C@@H]2C (some centres not stated)	active
CC1(C)C=CC(=O)[C@@]2(C)C1CC(=O)[C@]1(C)C2CC[C@@]2(C)[C@H](c3ccoc3)OC(=O)C3OC321 (some centres not stated)	inactive
CC[n+]1c(-c2ccccc2)c2cc(N)ccc2c2ccc(N)cc21	active

###

procedure text: chemical genetic growth profiling, strain panel (AID 1159580);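 also: tested at 20 µM; growth read once vehicle control cultures reached saturation at 30 °C; 1 = growth at the plate median or of vehicle wells; lower values mean less growth of the strain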
cond: S. cerevisiae deletion strains, growth OD, locus YPR119W, strain clb2, stronger effect = lower value
In all, about 5,500 compounds went through this assay and about 2,000 (36%) were called active. Not shown: some 18% with an inconclusive outcome. Some of the results follow.
readout: normalized growth

compound	meas value
C[C@]12CCC3c4ccc(O)cc4CCC3C1C[C@@H](O)[C@@H]2O (stereo not given in full)	0.989
CCCCCCCCCCCC1=C(O)C(=O)C=C(O)C1=O	0.986
C[C@@H]1O[C@@H](OC[C@H]2OC(Oc3c(-c4ccc(OCCO)c(OCCO)c4)oc4cc(OCCO)cc(O)c4c3=O)[C@H](O)[C@@H](O)[C@@H]2O)[C@H](O)[C@H](O)[C@H]1O (stereo not given in full)	0.996
CC(=O)[C@@]1(O)CCC2C3C[C@H](C)C4=CC(=O)C=CC4(C)[C@@]3(F)[C@@H](O)C[C@@]21C (stereo not given in full)	1.01
NC(N)=NC(=O)c1nc(Cl)c(N2CCCCCC2)nc1N	1.01
COc1ccc2c(c1)CCC1C2CCC2(C)C1C[C@@H](O)C2O (stereo not given in full)	0.991
CN(C)c1nc(N)c(C(=O)N=C(N)N)nc1Cl	0.988
Cc1cc(C2CCCCC2)n(O)c(=O)c1	0.0705
CC1CC[C@]2(NC1)O[C@H]1CC3C4CC[C@H]5C[C@@H](O)CC[C@]5(C)C4CC[C@]3(C)[C@H]1[C@@H]2C (stereo not given in full)	0.0896
C[C@@H]([C@H](O)c1ccccc1)N(C)C	1.01
CNC(C)C(O)c1ccccc1 (stereo not given)	1.02
NC(CSCSCC(N)C(=O)O)C(=O)O (stereo not given)	0.987
C[C@]12CCC3c4ccc(OS(=O)(=O)O)cc4CCC3C1CC[C@H]2O (stereo not given in full)	0.988
CC(C)[N+](C)(CCC(C(N)=O)(c1ccccc1)c1ccccc1)C(C)C	0.991
C[C@@H]1CC[C@@]2(OC1)OC1CC3C4CC=C5C[C@@H](O)CC[C@]5(C)C4CC[C@]3(C)C1[C@@H]2C (stereo not given in full)	0.967
CN1C(C)(C)CCCC1(C)C	1.01
COc1ccc(Cl)cc1C(=O)NCCc1ccc(S(=O)(=O)NC(=O)NC2CCCCC2)cc1	0.986
COc1cc(OC)c2c(=O)c(OC)c(-c3ccc(OC)c(OC)c3)oc2c1	1.01
O=C(O[C@@H]1Cc2c(O)cc(O)cc2O[C@@H]1c1cc(O)c(=O)c2c(O)c(O)cc([C@H]3Oc4cc(O)cc(O)c4C[C@H]3O)c2c1)c1cc(O)c(O)c(O)c1	1.02
CCN(Cc1ccncc1)C(=O)C(CO)c1ccccc1 (stereo not given)	0.987
